Target: T1, human tissue factor on cells (human, UniProt P13726 33-295)
T1 construct: cell-surface TF, transfected (HEK293T-humanTF) or endogenous (tumour lines, keratinocytes); the cell line is named under assay; also called HEK293T-humanTF; TF on BxPC3, primary human keratinocytes, NCI-H292, HCC1954, NCI-H1975
T1 sequence (P13726 33-295 limits assumed): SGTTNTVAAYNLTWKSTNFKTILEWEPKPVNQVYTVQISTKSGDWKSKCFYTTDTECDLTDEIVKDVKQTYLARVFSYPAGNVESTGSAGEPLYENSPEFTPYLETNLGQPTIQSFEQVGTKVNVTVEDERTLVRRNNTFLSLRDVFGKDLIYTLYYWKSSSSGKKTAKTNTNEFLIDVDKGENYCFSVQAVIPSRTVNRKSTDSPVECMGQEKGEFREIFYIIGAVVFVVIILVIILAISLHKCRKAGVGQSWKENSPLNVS
Assay: flow cytometry on BxPC3 cells (TF positive), one-site fit of MFI
Measured Parameter: Kd (nM)
// return numeric value only (unit: nM, not printed)

Guide cases for Kd, answers given:
Enquiry: Can you share its Kd? I mean this binder: SRP2901-F01 (antibody, V domains shown, humanized rabbit antibody, variable regions fused to human IGHG1 and IGKC; also called 2842-B01 HC1/LC3) VH: QVQVVESGGGLVKPGGSLRLSCAASGFSISSYDMSWIRQAPGKGLEWIGIIGSNGRTYYADSVKGRFTISRNTNENTVYLQMNSLRAEDTAVYYCARGLYDGTGNIWGQGTLVTVSS VL: DIQMTQSPSSLSASVGDRVTITCQASQSVYGNNWLSWYQQKPGKAPKLLIYGASKLASGVPSRFSGSGSGTDFTLTISSLQPEDFATYYCQGTYYSGDWYFAFGGGTKVEIK
Return: 0.61

Enquiry: Also, SRP2901-E03 (antibody, V domains shown, humanized rabbit antibody, variable regions fused to human IGHG1 and IGKC; also called 2842-B01 HC3/LC2) VH: EVQLVESGGGLVQPGGSLRLSCAASGFSISSYDMSWVRQAPGKGLEWIGIIGSNGRTYYPDSVKGRFTISRDNSKNTVTLQMNSLRAEDTAVYYCARGLYDGTGNIWGQGTLVTVSS VL: ELVMTQSPPTLSLSPGERVTLSCRASQSVYGNNWLSWYQQKPGQAPRLLIYGASKLATSIPARFSGSGSGTQFTLTISSLQPEDFAVYYCQGTYYSGDWYFAFGQGTKVEIK please.
Return: 0.386

Enquiry: Note, next up: SRP2901-D03 (antibody, V domains shown, humanized rabbit antibody, variable regions fused to human IGHG1 and IGKC; also called 2842-B01 HC3/LC1) VH: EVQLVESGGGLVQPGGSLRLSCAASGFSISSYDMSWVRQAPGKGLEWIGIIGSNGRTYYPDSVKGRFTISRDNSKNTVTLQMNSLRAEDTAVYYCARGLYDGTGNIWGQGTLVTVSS VL: DLQMTQSPSSLSASVGDRVTITCRASQSVYGNNWLSWYQQKPGKAPKLLIYGASKLASGVPSRFSGSGSGTQFTLTISSLQPEDFATYYCQGTYYSGDWYFAFGQGTKVEIK
Return: 0.344

Now look at this one.
Enquiry: Kd lookup needed for SRP2901-B05 (antibody, V domains shown, humanized rabbit antibody, variable regions fused to human IGHG1 and IGKC; also called 2842-G04 HC2/LC2) VH: QVQVQESGPGLVKPPGTLSLTCAVSGFSLSYYGVSWVRQPPGKGLEWIGTIDSSGRTYYNPSLKSRVTISNDNAPNTVSLKLSSVTAADTAVYYCARDFYGWNSGALDIWGQGTLVTVSS VL: DLQLTQSPSTLSASVGDRVTITCRASQSVYSNKYLSWYQQKPGKAPKLLIYKASTLASGVPSRFSGSGSGTEFTLTISSLQPDDFATYYCAAAYSDDSDTAFGQGTKVEIK , thanks.
Return: 0.389
